Each recorded value in this set is attributed to ChEMBL document CHEMBL3885861.

Species: Rattus norvegicus
test summary: Open TG-GATES - Regimen: Daily Repeat
Assay type: toxicity, organism-based, Sprague-Dawley
Set-up: regimen Daily Repeat, gender Male, age 6 weeks
conditions: in vivo, po, 300 mg/kg, […], tissue Plasma, route gavage, dose level Middle, time 14 day
reported endpoint: ALT (IU/L)
One number for each entry, in IU/L.

Sample records with ALT:
CC(C)(S)[C@@H](N)C(=O)O [PENICILLAMINE]	41.8
O=C(O)c1cccnc1 [NIACIN]	39.6
O=C(N[C@H](CO)[C@H](O)c1ccc([N+](=O)[O-])cc1)C(Cl)Cl [CHLORAMPHENICOL]	51.8

Pending molecule:
# molecule CCN1CCCC1CNC(=O)c1cc(S(N)(=O)=O)ccc1OC (centres undefined) [SULPIRIDE] ; its ALT = 37.4

====

Species on record: Rattus norvegicus
test summary: Open TG-GATES - Regimen: Single
Format: toxicity, organism-based, Sprague-Dawley
Set-up: regimen Single, gender Male, age 6 weeks
conditions: in vivo, po, 0 mg/kg, 9 h, tissue Plasma, route gavage, dose level Control
reported endpoint: ALP (IU/L)
Answers are plain numbers, in IU/L.

Below is a list of compounds. For each, state its recorded ALP.
1. C#C[C@]1(O)CC[C@H]2[C@@H]3CCc4cc(O)ccc4[C@H]3CC[C@@]21C
2. CCSCC[C@H](N)C(=O)O
3. CC(C)(S)[C@@H](N)C(=O)O
4. CC(=O)Oc1cc(C(C)C)c(OCCN(C)C)cc1C
5. CC(=N)S [THIOACETAMIDE]
6. CCN1CCCC1CNC(=O)c1cc(S(N)(=O)=O)ccc1OC (stereo unspecified) [SULPIRIDE]
7. Nc1nc(N)c2nc(-c3ccccc3)c(N)nc2n1

Marked response:
1. 1662.8
2. 936
3. 1372.8
4. 1372.2
5. 859.8
6. 1441.6
7. 1497.4

Below is a list of compounds. For each, state its recorded ALP.
1. Oc1ncnc2[nH]ncc12
2. CCc1oc2ccccc2c1C(=O)c1cc(I)c(O)c(I)c1
3. CN1C(=O)OC(C)(C)C1=O
4. C[C@]12CCC(=O)C=C1CC[C@@H]1[C@@H]2CC[C@@]2(C)[C@H]1CC[C@]2(C)O
5. O=C(N[C@H](CO)[C@H](O)c1ccc([N+](=O)[O-])cc1)C(Cl)Cl
6. CCC(C)(C)C(=O)O[C@H]1C[C@@H](C)C=C2C=C[C@H](C)[C@H](CC[C@@H]3C[C@@H](O)CC(=O)O3)[C@H]21
7. CC(C)C(=O)Nc1ccc([N+](=O)[O-])c(C(F)(F)F)c1 [FLUTAMIDE]

Marked response:
[761, 824.8, 1637, 1387.4, 1165.4, 810.4, 866.2]

Below is a list of compounds. For each, state its recorded ALP.
1. O=C(O)c1cccnc1
2. C[C@](N)(Cc1ccc(O)c(O)c1)C(=O)O

Marked response:
[1434.4, 1737.2]

====

Species: Rattus norvegicus
test summary: Open TG-GATES - Regimen: Daily Repeat
Format: toxicity, organism-based, Sprague-Dawley
Set-up: regimen Daily Repeat, gender Male, age 6 weeks
conditions: in vivo, po, 0 mg/kg, 72 h, tissue Plasma, route gavage, dose level Control, time 3 day
reported endpoint: GLC

Sample records with GLC:
O=C(N[C@H](CO)[C@H](O)c1ccc([N+](=O)[O-])cc1)C(Cl)Cl	186.8 mg/dL
CC(=O)Oc1cc(C(C)C)c(OCCN(C)C)cc1C	181.4 mg/dL
CN1C(=O)OC(C)(C)C1=O	180.6 mg/dL
Oc1ncnc2[nH]ncc12	201.6 mg/dL
CCc1oc2ccccc2c1C(=O)c1cc(I)c(O)c(I)c1	203.2 mg/dL
O=C(O)c1cccnc1	201.8 mg/dL

Below is a list of compounds. For each, state its recorded GLC.
1. Nc1nc(N)c2nc(-c3ccccc3)c(N)nc2n1
2. CC(=N)S [THIOACETAMIDE]
3. C[C@]12CCC(=O)C=C1CC[C@@H]1[C@@H]2CC[C@@]2(C)[C@H]1CC[C@]2(C)O

Marked response:
166 mg/dL
196.6 mg/dL
186.4 mg/dL

Below is a list of compounds. For each, state its recorded GLC.
1. CCN1CCCC1CNC(=O)c1cc(S(N)(=O)=O)ccc1OC (centres undefined) [SULPIRIDE]
2. C[C@](N)(Cc1ccc(O)c(O)c1)C(=O)O
3. CCSCC[C@H](N)C(=O)O
4. CC(C)C(=O)Nc1ccc([N+](=O)[O-])c(C(F)(F)F)c1 [FLUTAMIDE]
5. CC(C)(S)[C@@H](N)C(=O)O

Marked response:
188.8 mg/dL
172.8 mg/dL
210.2 mg/dL
220.2 mg/dL
177.8 mg/dL

====

Species: Rattus norvegicus
test summary: Open TG-GATES - Regimen: Single
Format: toxicity, organism-based, Sprague-Dawley
Parameters: regimen Single, gender Male, age 6 weeks
conditions: in vivo, po, 0 mg/kg, 24 h, tissue Blood, route gavage, dose level Control
reported endpoint: Hb (g/dL)
One number for each entry, in g/dL.

Sample records with Hb:
CC(=O)Oc1cc(C(C)C)c(OCCN(C)C)cc1C	13.6
C[C@]12CCC(=O)C=C1CC[C@@H]1[C@@H]2CC[C@@]2(C)[C@H]1CC[C@]2(C)O	13.2
C#C[C@]1(O)CC[C@H]2[C@@H]3CCc4cc(O)ccc4[C@H]3CC[C@@]21C	12.9
CC(C)(S)[C@@H](N)C(=O)O	13.3

Below is a list of molecules. For each, state its recorded Hb.
1. CC(C)C(=O)Nc1ccc([N+](=O)[O-])c(C(F)(F)F)c1 [FLUTAMIDE]
2. CCSCC[C@H](N)C(=O)O
3. CCC(C)(C)C(=O)O[C@H]1C[C@@H](C)C=C2C=C[C@H](C)[C@H](CC[C@@H]3C[C@@H](O)CC(=O)O3)[C@H]21

Marked response:
13.4
14
13

====

Would you kindly list Eos for each of these compounds?
Species: Rattus norvegicus
test summary: Open TG-GATES - Regimen: Daily Repeat
Type: toxicity, organism-based, Sprague-Dawley
Set-up: regimen Daily Repeat, gender Male, age 6 weeks
conditions: in vivo, po, 0 mg/kg, […], tissue Blood, route gavage, dose level Control, time 7 day
Numbers only, in %.

Below is a list of compounds. For each, state its recorded Eos.
1. C[C@]12CCC(=O)C=C1CC[C@@H]1[C@@H]2CC[C@@]2(C)[C@H]1CC[C@]2(C)O [METHYLTESTOSTERONE]
2. O=C(O)c1cccnc1 [NIACIN]
3. CN1C(=O)OC(C)(C)C1=O [TRIMETHADIONE]
4. CC(C)C(=O)Nc1ccc([N+](=O)[O-])c(C(F)(F)F)c1 [FLUTAMIDE]
5. CC(C)(S)[C@@H](N)C(=O)O [PENICILLAMINE]

Marked response:
[0.8, 1, 1, 1, 1]

====

Species: Rattus norvegicus
test summary: Open TG-GATES - Regimen: Single
Format: toxicity, organism-based, Sprague-Dawley
Set-up: regimen Single, gender Male, age 6 weeks
conditions: in vivo, po, 0 mg/kg, 6 h, tissue Blood, route gavage, dose level Control
reported endpoint: Ht (%)
Numbers only, in %.

O=C(N[C@H](CO)[C@H](O)c1ccc([N+](=O)[O-])cc1)C(Cl)Cl	42.9

Below is a list of molecules. For each, state its recorded Ht.
1. CC(C)(S)[C@@H](N)C(=O)O
2. C[C@](N)(Cc1ccc(O)c(O)c1)C(=O)O
3. CC(=O)Oc1cc(C(C)C)c(OCCN(C)C)cc1C
4. C#C[C@]1(O)CC[C@H]2[C@@H]3CCc4cc(O)ccc4[C@H]3CC[C@@]21C

Marked response:
[41.1, 40.1, 39.5, 39.3]

====

Organism: Rattus norvegicus
test summary: Open TG-GATES - Regimen: Daily Repeat
Assay type: toxicity, organism-based, Sprague-Dawley
Design: regimen Daily Repeat, gender Male, age 6 weeks
conditions: in vivo, po, 300 mg/kg, […], tissue Plasma, route gavage, dose level Middle, time 14 day
reported endpoint: TC (mg/dL)
Give bare numbers, in mg/dL.

Below is a list of molecules. For each, state its recorded TC.
1. O=C(O)c1cccnc1
2. CC(C)(S)[C@@H](N)C(=O)O
3. O=C(N[C@H](CO)[C@H](O)c1ccc([N+](=O)[O-])cc1)C(Cl)Cl
4. CCN1CCCC1CNC(=O)c1cc(S(N)(=O)=O)ccc1OC (centres undefined) [SULPIRIDE]

Marked response:
1. 77.6
2. 80.4
3. 63.4
4. 71.8

====

Species: Rattus norvegicus
test summary: Open TG-GATES - Regimen: Daily Repeat
Assay type: toxicity, organism-based, Sprague-Dawley
Design: regimen Daily Repeat, gender Male, age 6 weeks
conditions: in vivo, po, 0 mg/kg, 72 h, tissue Plasma, route gavage, dose level Control, time 3 day
Would you kindly list K for each of these compounds?
One number for each entry, in meq/L.

Sample records with K:
C#C[C@]1(O)CC[C@H]2[C@@H]3CCc4cc(O)ccc4[C@H]3CC[C@@]21C [ETHINYL ESTRADIOL]	4
Oc1ncnc2[nH]ncc12 [ALLOPURINOL]	4.9
CCC(C)(C)C(=O)O[C@H]1C[C@@H](C)C=C2C=C[C@H](C)[C@H](CC[C@@H]3C[C@@H](O)CC(=O)O3)[C@H]21 [SIMVASTATIN]	4.6
CC(C)C(=O)Nc1ccc([N+](=O)[O-])c(C(F)(F)F)c1 [FLUTAMIDE]	4.1

Pending compound:
# compound C[C@](N)(Cc1ccc(O)c(O)c1)C(=O)O [METHYLDOPA] ; its K = 3.9
